Molecular target: RORγt (Homo sapiens)
Construct: The plasmid of pFN26A-RORγt-LBD and pG14.35 (Promega, Cat. No. E1370) were co-transfected into HEK 293 cells; expressed in transfected cells; host or cells: HEK 293 cells (Cat. No. GNHu18)
Sequence (P51449 269-508 limits assumed): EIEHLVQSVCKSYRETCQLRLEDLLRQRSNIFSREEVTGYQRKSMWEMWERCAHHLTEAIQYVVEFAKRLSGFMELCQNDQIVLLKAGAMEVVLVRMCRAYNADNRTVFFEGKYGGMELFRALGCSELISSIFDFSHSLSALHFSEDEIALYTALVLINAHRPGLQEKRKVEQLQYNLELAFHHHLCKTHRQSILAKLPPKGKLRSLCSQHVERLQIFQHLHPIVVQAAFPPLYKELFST
Experiment: RORγt cellular reporter gene detection assay;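 further: Ursolic Acid added as 5 µL of 20 µM medium per well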
Format: cell-based
Conditions: upper activation limit; HEK 293 cells, in presence of antagonist Ursolic acid, 24 hrs
Description: II. RORγt Cellular Reporter Gene Detection Assay In this experiment, RORγt Reporter Gene Detection method was used to evaluate the activation and specificity of compounds to RORγt in cells. […] The efficacy of compounds was evaluated with the presence of an antagonist Ursolic acid (Selleck, Cat. No. S2370-100 mg). […] The dose effect was evaluated by a 4-fold dilution of the test compound starting from 50 μM; • 4. […]
measured_attribute: Cellular Reporter Assay Amax

Previously resolved entries follow.
- C/C(=C\c1ccc2c(c1)N(S(=O)(=O)c1cccc(C(F)(F)F)c1)C[C@@H]1CN(C3(C(N)=O)CCC3)CCN21)c1c(F)cccc1Cl [Example 79]: 2.8
- CN1CCN(S(=O)(=O)c2cccc(C(F)(F)F)c2)c2cc(-c3cc(F)cc(OC(F)F)c3)ccc21 [Example 1]: 3.3

Bench note: what Cellular Reporter Assay Amax did O=C(O)CN1CCN2c3ccc(/C=C/c4c(Cl)cccc4C(F)(F)F)cc3N(S(=O)(=O)c3cccc(OC(F)(F)F)c3)C[C@@H]2C1 [Example 86] show? 12.6

Likewise for COC(=O)CN1CCN2c3ccc(-c4cc(F)cc(OC(F)F)c4)cc3N(S(=O)(=O)c3cc(C(F)(F)F)cnc3OCCO)C[C@@H]2C1 [Example 90] ? 1.8

Likewise for N#CCC(=O)N1CCN2c3ccc(/C=C/c4c(Cl)cccc4C(F)(F)F)cc3N(S(=O)(=O)c3cccc(C(F)(F)F)c3)C[C@@H]2C1 [Example 29] ? 6.7

Likewise for O=S(=O)(c1cccc(C(F)(F)F)c1)N1C[C@@H]2CN(C[C@@H](O)CO)CCN2c2ccc(/C=C/c3c(Cl)cccc3C(F)(F)F)cc21 [Example 35] ? 4.2

###

The compounds listed here are annotated with their log10(EC50).
Biological target: RORγt-LBD (Homo sapiens)
Sequence (P51449 269-508 limits assumed): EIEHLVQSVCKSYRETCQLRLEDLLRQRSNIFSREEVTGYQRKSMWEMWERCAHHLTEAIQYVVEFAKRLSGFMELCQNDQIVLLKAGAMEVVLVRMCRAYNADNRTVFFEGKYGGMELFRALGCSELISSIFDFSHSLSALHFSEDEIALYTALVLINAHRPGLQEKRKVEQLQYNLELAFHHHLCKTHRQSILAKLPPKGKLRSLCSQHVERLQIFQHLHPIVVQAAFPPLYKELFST
Assay: Time-resolved fluorescence resonance energy-transfer assay (TR-FRET), co-activator peptide recruitment
Conditions: His-RORγt-LBD 30 nM, SRC peptide 500 nM; agonistic activity; averages of one or more measurements; read-out: TR-FRET Biochemical EC50/
All values: base-10 log of EC50 in nM.

Previously resolved entries follow.
* N#CCC(=O)N1CCN2c3ccc(/C=C/c4c(Cl)cccc4C(F)(F)F)cc3N(S(=O)(=O)c3cccc(C(F)(F)F)c3)C[C@@H]2C1 | 1.24
* CS(=O)(=O)N1CCN2c3ccc(-c4cc(F)cc(OC(F)F)c4)cc3N(S(=O)(=O)c3cccc(C(F)(F)F)c3)C[C@@H]2C1 | 1.12

// next item, log10(EC50) requested
Bench note: what log10(EC50) did COC(=O)CN1CCN2c3ccc(/C=C/c4c(Cl)cccc4C(F)(F)F)cc3N(S(=O)(=O)c3cccc(C(F)(F)F)c3)C[C@@H]2C1 show? 1.02

Attribution: patent US20220009894A1
